// reported selectivity ratio at 72 h per item
# PROCEDURE_DETAILS: Selectivity index, ratio of IC50 for cytotoxicity against human MRC5 cells to IC50 for cytotoxicity against human MCF7 cells
# STATED_CONDITIONS: MRC5 cells versus MCF7 cells
MEASURED_PROPERTY: selectivity ratio at 72 h

1) COc1ccc(NC(=O)COc2ccc(N3C(=O)CSC3c3ccccc3)cc2)cc1OC (configuration not stated)    4.19
2) Cc1ccc(NC(=O)COc2ccc(N3C(=O)CSC3c3ccc(Cl)cc3)cc2)cc1 (configuration not stated)    1.53
3) Cc1ccc(NC(=O)COc2ccc(N3C(=O)CSC3c3ccc(C)cc3)cc2)cc1 (configuration not stated)    2.34
4) O=C(COc1ccc(N2C(=O)CSC2c2ccccc2)cc1)Nc1ccccc1 (configuration not stated)    1.54
5) O=C(COc1ccc(N2C(=O)CSC2c2ccccc2)cc1)Nc1ccc(Cl)cc1 (configuration not stated)    1.79
6) Cc1ccc(C2SCC(=O)N2c2ccc(OCC(=O)Nc3ccc(Cl)cc3)cc2)cc1 (configuration not stated)    4.27
7) COc1ccc(NC(=O)COc2ccc(N3C(=O)CSC3c3ccc(C)cc3)cc2)cc1 (configuration not stated)    1.17
